Items are presented alongside their recorded pIC50.
System: COLO-680N;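 also: cell viability assay used to measure inhibition of COLO-680N cell growth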
Test: cells
Type: functional, cell-based
Details: Homo sapiens
Description: SANGER: Inhibition of human COLO-680N cell growth in a cell viability assay.
pIC50: −log10 of the molar value.

The cases that follow already have their pIC50 on record.
[
  {
    "TEST_SMILES": "NC(=O)c1ccc(N(C(N)=O)c2c(F)cccc2F)nc1-c1ccc(F)cc1F",
    "pIC50": "< 5.70"
  },
  {
    "TEST_SMILES": "NC1(c2ccc(-c3nc4ccn5c(=O)[nH]nc5c4cc3-c3ccccc3)cc2)CCC1",
    "pIC50": "< 5.40"
  },
  {
    "TEST_SMILES": "Cc1ccc(C(=O)Nc2ccc(CN3CCN(C)CC3)c(C(F)(F)F)c2)cc1C#Cc1cnc2cccnn12",
    "pIC50": "< 6.29"
  }
]

Query block: In one line, give reported pIC50 of the entry Cc1ccc(-n2nc(C(C)(C)C)cc2NC(=O)Nc2ccc(OCCN3CCOCC3)c3ccccc23)cc1 .
Result block: < 5.00

// data source = ChEMBL document CHEMBL1201861
